Value source: the supplement of paper PMC10567573

B1: ANKRD17 (parent)
chain: EVLRRLTSSVSCALDEAAAALTRM

- Variants of: B1
- assay: protein stability index of a GFP-peptide fusion (GPS, HEK-293T) (PSI 1-6); higher = more stable;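 also: lentivirally expressed fusions sorted by FACS into six bins by GFP to DsRed ratio, PSI derived from sequencing read proportions per bin multiplied by bin number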
- particulars: c terminus: a fixed tail appended
value.type: protein stability index
// keep it numeric: no unit symbol after the value

query: Which protein stability index value belongs to S11Q ?
result: 1.18

query: Thanks! And S9P ?
result: 1.94

query: Thanks! And A18W ?
result: 1.64

query: Thanks! And E16N ?
result: 3

query: Thanks! And M24V ?
result: 1.07

query: Thanks! And A13L ?
result: 1.38

query: Thanks! And L21W ?
result: 1.6

query: Thanks! And L14Y ?
result: 2.27

query: Thanks! And C12L ?
result: 2.75

query: Thanks! And E1M ?
result: 1.38

query: Thanks! And E16S ?
result: 2.96

query: Thanks! And S8M ?
result: 2.13

query: Thanks! And E1T ?
result: 2.08

query: Thanks! And L14S ?
result: 2.72

query: Thanks! And R5L ?
result: 1.59

query: Thanks! And S8G ?
result: 1.52

query: Thanks! And E1K ?
result: 2.28

query: Thanks! And L21I ?
result: 1.93

query: Thanks! And L6E ?
result: 3.9

query: Thanks! And V2Q ?
result: 2.56

query: Thanks! And T7D ?
result: 1.81

query: Thanks! And S11Y ?
result: 2.26

query: Thanks! And T22Y ?
result: 1.85

query: Thanks! And L21D ?
result: 1.53

query: Thanks! And A19S ?
result: 2.16

query: Thanks! And C12A ?
result: 3.05

query: Thanks! And C12P ?
result: 1.91

query: Thanks! And E16Q ?
result: 2.56

query: Thanks! And E16Y ?
result: 2.43

query: Thanks! And V10H ?
result: 1.74

query: Thanks! And A20H ?
result: 1.52

query: Thanks! And S11I ?
result: 2.1

query: Thanks! And A18V ?
result: 1.8

query: Thanks! And T22F ?
result: 2.21

query: Thanks! And L6T ?
result: 2.32

query: Thanks! And S9E ?
result: 1.47

query: Thanks! And R4P ?
result: 2.15

query: Thanks! And L21F ?
result: 1.65

query: Thanks! And C12G ?
result: 3.18

query: Thanks! And T7M ?
result: 2.05

query: Thanks! And R4T ?
result: 2.1

query: Thanks! And L6I ?
result: 1.67

query: Thanks! And R4C ?
result: 1.74

query: Thanks! And L6Q ?
result: 2.95

query: Thanks! And C12F ?
result: 1.78

query: Thanks! And A20L ?
result: 1.45

query: Thanks! And L14Q ?
result: 2.48

query: Thanks! And R23A ?
result: 2.91

query: Thanks! And S8F ?
result: 4.21

query: Thanks! And T22C ?
result: 2.1

query: Thanks! And C12M ?
result: 1.74

query: Thanks! And T22W ?
result: 1.46

query: Thanks! And A18Y ?
result: 1.69

query: Thanks! And R23F ?
result: 4.05

query: Thanks! And L21H ?
result: 1.89

query: Thanks! And R23D ?
result: 2.8

query: Thanks! And A18R ?
result: 2.43

query: Thanks! And L6F ?
result: 1.9

query: Thanks! And T22E ?
result: 2.06

query: Thanks! And E1Q ?
result: 3.07

query: Thanks! And A18L ?
result: 1.68

query: Thanks! And S9F ?
result: 2.38

query: Thanks! And A19H ?
result: 1.78

query: Thanks! And T7F ?
result: 1.66

query: Thanks! And A18P ?
result: 2.72

query: Thanks! And A17E ?
result: 2.24

query: Thanks! And L3S ?
result: 2.98

query: Thanks! And D15P ?
result: 2.37

query: Thanks! And A20I ?
result: 2.52

query: Thanks! And R5D ?
result: 3.56

query: Thanks! And S8A ?
result: 1.68

query: Thanks! And L21N ?
result: 3.47

query: Thanks! And A17F ?
result: 2.03

query: Thanks! And E1Y ?
result: 2.22

query: Thanks! And A18T ?
result: 2.27

query: Thanks! And M24I ?
result: 2.08

query: Thanks! And L14C ?
result: 2.2

query: Thanks! And R4F ?
result: 1.03

query: Thanks! And T7E ?
result: 2.81

query: Thanks! And C12E ?
result: 3

query: Thanks! And D15G ?
result: 1.26

query: Thanks! And E16R ?
result: 2.09

query: Thanks! And T7H ?
result: 1.17

query: Thanks! And V2Y ?
result: 2.08

query: Thanks! And E1G ?
result: 2.73

query: Thanks! And D15Q ?
result: 1.87
